Each recorded value in this set is attributed to the supplement of paper PMC10567573.

B1: HMOX1 (parent)
chain: YHIYVALEEEIERNKESPVFAPVY

# Variants of: B1
# methodSummary: protein stability index of a GFP-peptide fusion (GPS, HEK-293T) (PSI 1-6); higher = more stable;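 note: lentivirally expressed fusions sorted by FACS into six bins by GFP to DsRed ratio, PSI derived from sequencing read proportions per bin multiplied by bin number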
# testContext: c terminus: a fixed tail appended

variantLabel	protein stability index
K15F	2.13
A21L	1.58
V5W	2.12
Y1A	2.6
E16R	1.8
E8G	3.48
N14L	2.05
L7H	1.49
A21Q	2.41
L7Q	2.16
I11D	1.58
E9A	1.91
A21V	1.76
E8Q	3.23
S17A	2.27
H2Q	3.32
S17Y	1.26
P22I	2.61
E16L	2.32
I11E	1.89
Y1D	4.59
Y4A	2.34
E16Y	1.88
H2C	1.73
L7V	2.93
V5M	2.79
P18A	2.14
E10D	2.93
N14T	2.81
V23Q	1.99
N14D	2.06
L7E	1.76
Y24A	3.11
I3S	2.26
E16C	1.57
E12A	1.68
Y1F	2.03
V5F	1.63
A21I	1.87
V19I	1.72
A21E	2.41
K15H	1.42
S17C	1.86
L7M	1.62
Y4R	1.57
Y4L	2.26
E12F	2.35
I3A	1.42
A21H	2.06
S17D	2.3
Y24H	2.48
V19A	2.3
V5I	1.94
N14K	2.12
L7I	1.76
E8V	2.3
